experimental-system: Indoleamine 2,3-dioxygenase 1 (Homo sapiens, UniProt P14902)
Sequence (P14902 whole entry): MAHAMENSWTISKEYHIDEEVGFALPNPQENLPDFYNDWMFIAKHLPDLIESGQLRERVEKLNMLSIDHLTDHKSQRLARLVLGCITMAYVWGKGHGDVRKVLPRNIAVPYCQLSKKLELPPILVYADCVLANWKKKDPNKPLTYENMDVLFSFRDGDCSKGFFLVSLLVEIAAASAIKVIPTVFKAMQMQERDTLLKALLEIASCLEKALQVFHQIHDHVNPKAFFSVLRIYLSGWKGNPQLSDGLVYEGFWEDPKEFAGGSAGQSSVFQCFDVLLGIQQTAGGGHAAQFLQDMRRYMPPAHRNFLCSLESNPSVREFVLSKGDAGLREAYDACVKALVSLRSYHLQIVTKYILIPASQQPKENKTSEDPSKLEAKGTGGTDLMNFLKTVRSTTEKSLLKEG
assay-name: Inhibition of IDO1 in IFN-gamma-stimulated human HeLa cells assessed as decrease in kynurenine levels after 48 hrs
Format: cell-based
For each record, write down the corresponding pIC50.
Keep it numeric: pIC50 is minus log10 of the concentration in mol/L.

Consider the molecule shown here: `NS(=O)(=O)NCCNc1nonc1C(=NO)Nc1ccc(F)c(Cl)c1` What is its recorded pIC50?
7.96

Which pIC50 value belongs to `CS(=O)(=O)NCCNc1nonc1C(=NO)Nc1ccc(F)c(Br)c1` ?
7.80

Recorded pIC50 of `CC(=O)NCCNc1nonc1/C(=N/O)Nc1ccc(F)c(Br)c1` , please.
7.77

GET /values?readout=pIC50&item= `CNc1nonc1/C(=N/O)Nc1ccc(F)c(Br)c1`
7.85

// query pIC50 value for entry `OCCNc1nonc1/C(=N/O)Nc1ccc(F)c(Br)c1`
7.66

Name the reported pIC50 value associated with the molecule `CCNc1nonc1/C(=N/O)Nc1ccc(F)c(Br)c1`
7.46

* * *

assay-name: Volume of distribution at steady state in beagle dog at 5 mg/kg, iv or 10 mg/kg, po by LC/MS/MS analysis
Format: ADME, organism-based, Canis lupus familiaris
conditions-used: in vivo, read-out: Vdss
endpoint-name: Vd (L/kg)
Unit L/kg implied. Number only.

Fill in the blank: the reported Vd of NS(=O)(=O)NCCNc1nonc1C(=NO)Nc1ccc(F)c(Br)c1 [EPACADOSTAT] is ____.
0.7

* * *

Test system: Liver
assay-name: Intrinsic clearance in rat hepatic S9 fraction at 5 uM in presence of UDPGA measured over 30 mins by LC/MS analysis
Format: ADME
conditions-used: s9, 0.5 h
endpoint-name: CLH (mL/min/kg)
Field format: number, assumed mL/min/kg, no unit text.

I'd like to know its CLH. The molecule in question is `CCNc1nonc1/C(=N/O)Nc1ccc(F)c(Br)c1`
23.3

What does the record list as CLH for `CC(=O)NCCNc1nonc1/C(=N/O)Nc1ccc(F)c(Br)c1` ?
15

Look up CLH: `CS(=O)(=O)NCCNc1nonc1C(=NO)Nc1ccc(F)c(Br)c1`
12

Quick check: CLH of `NS(=O)(=O)NCCNc1nonc1C(=NO)Nc1ccc(F)c(Cl)c1` ?
8.3

Fill blank: measured CLH of the molecule `NCCNc1nonc1/C(=N/O)Nc1ccc(F)c(Br)c1` is ____.
18.3

Can you look up the measured CLH of `NS(=O)(=O)NCCNc1nonc1C(=NO)Nc1ccc(F)c(Br)c1` for me?
6.7

What does the data say about its CLH? Entry: `O/N=C(\Nc1ccc(F)c(Br)c1)c1nonc1NCc1ccccc1`
35

* * *

assay-name: Volume of distribution at steady state in rat at 5 mg/kg, iv or 5 mg/kg, po by LC/MS/MS analysis
Type: ADME, organism-based
conditions-used: in vivo, read-out: Vdss
endpoint-name: Vd (L/kg)
Provide only the numeric value, understood in L/kg.

Please give the measured Vd for this compound: `NS(=O)(=O)NCCNc1nonc1C(=NO)Nc1ccc(F)c(Br)c1`
2

* * *

experimental-system: Indoleamine 2,3-dioxygenase 1 (Homo sapiens, UniProt P14902)
assay-name: Inhibition of IDO1 in IFN-gamma-stimulated human HeLa cells assessed as decrease in kynurenine levels after 48 hrs
Type: cell-based
endpoint-name: pIC50
Scale for pIC50: -log10 of concentration given in mol/L; no unit attached.

Hello, I am looking for reported pIC50 with Indoleamine 2,3-dioxygenase 1 (Homo sapiens, UniProt P14902) for `Nc1nonc1C(=Nc1ccc(F)c(Br)c1)NO` . Could you help?
8.00

Please provide the recorded pIC50 for `O/N=C(\Nc1ccc(F)c(Br)c1)c1nonc1NCc1ccccc1` , tested on Indoleamine 2,3-dioxygenase 1 (Homo sapiens, UniProt P14902).
6.55

API: value(readout= pIC50, system= Indoleamine 2,3-dioxygenase 1 (Homo sapiens, UniProt P14902), query= `COCCNc1nonc1/C(=N/O)Nc1ccc(F)c(Br)c1` )
7.00

Look up pIC50 with Indoleamine 2,3-dioxygenase 1 (Homo sapiens, UniProt P14902) for this compound: `NCCNc1nonc1/C(=N/O)Nc1ccc(F)c(Br)c1`
7.01
